Each entry below lists one item and its recorded Δ P50 (oxygen tension at 50% saturation, difference control vs treated) value.
tested_system: Hb-S (Homo sapiens, UniProt P68871+P69905, E7V)
protocol: Oxygen-Affinity Assay (whole Hb-S blood)
Type: cell-based
measurement_setup: 10 mM, 37° C.
property_name: Δ P50 (oxygen tension at 50% saturation, difference control vs treated) (mm Hg)

smiles_notation: Cl.FC(F)(F)c1cccc(OCC2=NCCN2)c1
units_label: mm Hg
observed_measurement: -3.0

smiles_notation: CS(=O)(=O)c1ccc(OCC2=NCCN2)cc1.Cl
units_label: mm Hg
observed_measurement: -7.0

smiles_notation: O=[N+]([O-])c1cccc(OCC2=NCCN2)c1
units_label: mm Hg
observed_measurement: -10.6

smiles_notation: Cc1ccc(S(=O)(=O)O)cc1.N#Cc1cccc(OCC2=NCCN2)c1
units_label: mm Hg
observed_measurement: -13.7

smiles_notation: Cl.c1ccc(OCC2=NCCN2)cc1
units_label: mm Hg
observed_measurement: -5.0

smiles_notation: Cl.FC(F)(F)c1cccc(NCC2=NCCN2)c1
units_label: mm Hg
observed_measurement: -4.3

smiles_notation: Cc1ccc(S(=O)(=O)O)cc1.N#Cc1ccc(OCC2=NCCN2)cc1
units_label: mm Hg
observed_measurement: -9.1

smiles_notation: CSc1ccc(OCC2=NCCN2)cc1C
units_label: mm Hg
observed_measurement: -14.7

###

protocol: Toxicity (LD50) in mice
measurement_setup: mouse, in vivo, ip, intraperitoneal injection

compound: Cc1ccc(S(=O)(=O)O)cc1.N#Cc1ccc(OCC2=NCCN2)cc1 [Example 2]
LD50 / mg/kg: 316

src = patent US4343808A
